- System: SNB-75
- measurement description: NCI tumour cell line growth inhibition, 48 h
Activity calls are given as the source filed them. Rule as the data show it: active = GI50 up to about 1.1 µM and inactive = higher.
Labels: Y = active, N = inactive

- molecule: "CC(C)=CCNc1ncnc2c1ncn2CCC(=O)O"
  category: "N"
- molecule: "C/C(=N\\NC(=O)c1ccccc1O)C1=CNc2ccccc2S1"
  category: "N"
- molecule: "O=C(O)/C(Cl)=C(/Cl)C(=O)Nc1cccc(Cl)c1"
  category: "N"
- molecule: "CCN(CC)CCOC(c1cc(OC)ccc1OC)c1ccc2n1-c1ccccc1OC2 (stereo unspecified)"
  category: "N"
- molecule: "COC(=O)C(=O)C(C(=O)C(=O)Nc1cccc(C(C)=O)c1)c1nc2ccccc2nc1O (stereo unspecified)"
  category: "N"
- molecule: "CN(C)CCNc1ccc2ncnc3c2c1C(=O)c1ccccc1-3"
  category: "Y"
- molecule: "Cc1cn([C@@H]2O[C@H](CO[Si](C)(C)C(C)(C)C)[C@]3(O[C@H]3C(=O)NO)[C@H]2O[Si](C)(C)C(C)(C)C)c(=O)[nH]c1=O"
  category: "N"
- molecule: "COc1ccc(C(OCC2OC(n3cc(C)c(=O)[nH]c3=O)CC2n2cc(Cn3cc(Br)c(=O)[nH]c3=O)nn2)(c2ccccc2)c2ccccc2)cc1 (stereo unspecified)"
  category: "N"
- molecule: "C[n+]1c2ccc(Cl)cc2nc2cc(-c3ccccc3)ccc21"
  category: "N"
- molecule: "C[Si](C)(C)C#CCO[Si](C)(C)C"
  category: "N"
- molecule: "COC(=O)c1c2c(cc3c1CC1(C3)Cc3cc4c(c(C(C)=O)c3C1)CCC4)C=CC2 (stereo unspecified)"
  category: "N"
- molecule: "Clc1ccc2c(NCCCC/N=C/c3ccccc3)ccnc2c1"
  category: "N"
- molecule: "C=CC/C=C/C/C=C/CCCCCCCc1cccc(O)c1C(=O)O"
  category: "N"
- molecule: "Cn1c2cn[nH]c(=O)c2c2ccc3ccccc3c21"
  category: "N"
- molecule: "CC(=O)NC1=C(C)C(=O)c2c(nc3n2CCC3OC(=O)CCl)C1=O (stereo unspecified)"
  category: "N"
- molecule: "CCN1CCCCC(=N\\O)/C(=N/O)CCCC1"
  category: "N"
- molecule: "CN(C)c1ccc(-c2[nH]c(=O)c3ccccc3[n+]2C)cc1"
  category: "N"
- molecule: "CSc1ncnc2c1cnn2Cc1cn(CCCCO)nn1"
  category: "N"
- molecule: "COc1ccccc1-n1cnc2c1=NC(C)(C)NC=2C(N)=O"
  category: "N"
- molecule: "CC1CNC(c2ccc(COc3ccc(C4=NC(C)CN4)cc3)cc2)=N1 (stereo unspecified)"
  category: "N"
- molecule: "COc1cc(S(=O)(=O)Nc2ccc(-c3csc(N4C(=O)C(C)SC4c4cccc(Oc5ccccc5)c4)n3)cc2)ccc1Cl (stereo unspecified)"
  category: "N"

----------
- System: PC-3
- measurement description: NCI tumour cell line growth inhibition, 48 h
Activity calls are given as the source filed them. Rule as the data show it: active = GI50 up to about 1.1 µM and inactive = higher. Where a SMILES comes first, the peptide text is derived from it. The star is where a group is joined. Fmoc = O=C(OCC1c2ccccc2-c2ccccc21)*; OtBu = CC(C)(C)O*

- molecule: "C=C1C(=O)C23CC1C[C@H](OC(C)=O)C2C1(C)C(OC(C)=O)C[C@H](O)C(C)(C)[C@H]1C(O)[C@@H]3OC(C)=O (stereo partly specified)"
  measured target: "PC-3"
  GI50: "11.1 µM (inactive)"
- molecule: "COc1ccc(CC2Cc3ccccc3CC(=O)N2)cc1OC (stereo unspecified)"
  measured target: "PC-3"
  GI50: "40.3 µM (inactive)"
- molecule: "CSC1=N/C(=C\\c2ccco2)C(=O)N1CN1CCOCC1"
  measured target: "PC-3"
  GI50: "> 93.8 µM (inactive)"
- molecule: "Cc1cnc(-n2c(C)nc3cc(Cl)ccc3c2=O)s1"
  measured target: "PC-3"
  GI50: "27.9 µM (inactive)"
- molecule: "O=C1C=CC2(C=C1)O[C@H](CCc1ccccc1)[C@@H](CCc1ccccc1)O2"
  measured target: "PC-3"
  GI50: "> 100 µM (inactive)"
- molecule: "c1ccc(-c2sc(-c3ccccc3)c3c2C2CCC3C2)cc1"
  measured target: "PC-3"
  GI50: "25.5 µM (inactive)"
- molecule: "C=C1CCC(CC[C@@H]2CC[C@]3(OC2)O[C@@]2(O)CC[C@]3(C)OC2(C)C)C(C)(C)[C@H]1C/C=C1/C(=O)OC[C@@H]1O (stereo partly specified)"
  measured target: "PC-3"
  GI50: "2.17 µM (inactive)"
- molecule: "Cc1ccc(NCCN(C)C)c2c(=O)c3cc(O)ccc3sc12"
  measured target: "PC-3"
  GI50: "1.22 µM (inactive)"
- molecule: "N#CC(C#N)C1CN2CCC1CC2 (stereo unspecified)"
  measured target: "PC-3"
  GI50: "> 100 µM (inactive)"
- molecule: "Cc1cc(C(=O)CSC(=S)SC(C)(C)C)ccc1Cl"
  measured target: "PC-3"
  GI50: "29.8 µM (inactive)"
- molecule: "CC1CNC(c2ccc(COc3ccc(C4=NC(C)CN4)cc3)cc2)=N1 (stereo unspecified)"
  measured target: "PC-3"
  GI50: "32.1 µM (inactive)"
- molecule: "Cc1cc(S(=O)(=O)[N-]/C(=N/S(=O)(=O)c2cc(Cl)sc2Cl)[n+]2ccc(N(C)C)cc2)c(S)cc1Cl"
  measured target: "PC-3"
  GI50: "53.8 µM (inactive)"
- molecule: "CCOC(=O)c1cccc(NC(=O)CBr)c1"
  measured target: "PC-3"
  GI50: "1.55 µM (inactive)"
- molecule: "CSc1nn(C)cc2nc(C)nc1-2"
  measured target: "PC-3"
  GI50: "> 100 µM (inactive)"
- molecule: "CC(C)C(NC(=O)OCC1c2ccccc2-c2ccccc21)C(=O)NC(CCC(=O)OC(C)(C)C)C(=O)OC(C)(C)C (stereo unspecified) (Fmoc-Val-Glu(OtBu)-OtBu; configuration not given here)"
  measured target: "PC-3"
  GI50: "3.99 µM (inactive)"
- molecule: "Cc1ccc(S(=O)(=O)NC(=O)NCC(=O)NCC(=O)O)cc1"
  measured target: "PC-3"
  GI50: "> 100 µM (inactive)"
- molecule: "C[C@@H](CN1CC(=O)NC(=O)C1)N1CC(=O)NC(=O)C1"
  measured target: "PC-3"
  GI50: "180 µM (inactive)"
- molecule: "COc1cc(C2c3cc4c(cc3C(=O)C3CCC(=O)N32)OCO4)cc(OC)c1O (stereo unspecified)"
  measured target: "PC-3"
  GI50: "> 50 µM (inactive)"
- molecule: "CCCCOC(=O)C(O)Cc1ccoc1 (stereo unspecified)"
  measured target: "PC-3"
  GI50: "> 100 µM (inactive)"
- molecule: "CC1CC/C(=C\\c2ccc(N(C)C)cc2)C(=O)/C1=C/c1ccc(N(C)C)cc1 (stereo unspecified)"
  measured target: "PC-3"
  GI50: "> 100 µM (inactive)"
- molecule: "Cc1ccccc1-c1nc2c(N)nc(N)nc2nc1N"
  measured target: "PC-3"
  GI50: "4.46 µM (inactive)"

----------
- Test system: SF-539
- measurement description: NCI tumour cell line growth inhibition, 48 h
Counter-ions that a name gives are not always drawn. Activity calls are given as the source filed them. Rule as the data show it: active = GI50 up to about 1.1 µM and inactive = higher. Residues, ends and D or L forms follow the SMILES beside them. *: point of attachment. Tfa = O=C(C(F)(F)F)*

- compound: "COc1cc2cc3c4c(cc(OC)c(OC)c4c2cc1OC)CCN3"
  GI50: "14.6 µM (inactive)"
- compound: "CC(C)C(C/C=C1/CC(CO)(COC(=O)CC(C(C)C)C(C)C)OC1=O)C(C)C (centres undefined)"
  GI50: "11.2 µM (inactive)"
- compound: "Cn1c(COC(=O)NC2CCCCC2)c(COC(=O)NC2CCCCC2)c2ccc3cc(Cl)c(Cl)cc3c21"
  GI50: "14.8 µM (inactive)"
- compound: "O=C(O)CC(NC(=O)C(F)(F)F)C(=O)NC(Cc1ccc(O)cc1)C(=O)O (stereo not drawn) (Tfa-Asp-Tyr-OH; configuration not given here)"
  GI50: "> 50 µM (inactive)"

----------
The following compounds are shown together with reported GI50 values.
- Tested on: UACC-257
- measurement description: NCI tumour cell line growth inhibition, 48 h
The source made the active and inactive calls. Cut-off read from the data, not from the text of the source: active = GI50 up to about 1.1 µM and inactive = higher.

- compound: "COC(=O)C12OCC34C(CC5C(C)C6=CC(=O)OC6=CC5(C)C3C(O)C1O)OC(=O)C(O)C24 (stereo not given)"
  GI50: "1.5 µM (inactive)"
- compound: "O=C(O)c1ccccc1SCc1cccc2c(=O)c3ccc(Cl)cc3oc12"
  GI50: "> 50 µM (inactive)"
- compound: "CC(=O)/C(=C/NC(=S)c1cccnc1)C(=O)Nc1ccccc1C"
  GI50: "> 100 µM (inactive)"
- compound: "C=C[C@@H](C)[C@H](NS(=O)(=O)c1ccc(C)cc1)C(=O)OCC"
  GI50: "24.9 µM (inactive)"
- compound: "CN(C)CCCN1c2ccccc2Sc2ccc3ccccc3c21"
  GI50: "1.84 µM (inactive)"
- compound: "Cc1noc(C)c1C1=CCCCc2ccccc21"
  GI50: "> 100 µM (inactive)"
- compound: "COc1ccc(C(=O)C(c2ccc(OC)cc2)C2OC(=O)C(Cl)=C2Cl)cc1 (stereo not given)"
  GI50: "> 100 µM (inactive)"
- compound: "Clc1ccc(-c2nn3c(COc4cccc(OCc5nnc6sc(-c7ccc(Cl)cc7)nn56)c4)nnc3s2)cc1"
  GI50: "26.1 µM (inactive)"
- compound: "O=C(c1ccccc1)c1ccc2[nH]c(-c3c(Cl)c(Cl)c(Cl)c(Cl)c3C(=O)N/N=C/c3ccc(Cl)cc3)nc2c1"
  GI50: "43.3 µM (inactive)"
- compound: "Cc1nc2ccccc2c(=O)n1NC(=S)Nc1cccc(Cl)c1"
  GI50: "> 100 µM (inactive)"
- compound: "COC(=O)CCC1CCc2c(OC)ccc(OC)c2C1=O (stereo not given)"
  GI50: "> 100 µM (inactive)"
- compound: "Clc1ccc(CCN(CCc2ccc(Cl)c(Cl)c2)CCN2CCCC2)cc1Cl"
  GI50: "1.78 µM (inactive)"
- compound: "O=C(Nc1ccc(F)cc1)C(=O)C(C(=O)c1ccccc1F)C1OC(=O)c2ccccc21 (stereo not given)"
  GI50: "> 100 µM (inactive)"
- compound: "CC(C)(C)COS(=O)OCC(C)(C)C"
  GI50: "> 100 µM (inactive)"
- compound: "CN(C)CCCNC(=O)c1cc(NC(=O)c2cc(NC(=O)[C@@H]3C[C@H]3C(=O)Nc3cc(C(=O)Nc4cc(C(=O)NCCCN(C)C)n(C)c4)n(C)c3)cn2C)cn1C"
  GI50: "> 100 µM (inactive)"
- compound: "O=C(COc1ccccc1)NS(=O)(=O)c1ccccc1"
  GI50: "> 100 µM (inactive)"
- compound: "NC(CCOCCP(=O)(O)CCOCCC(N)C(=O)O)C(=O)O (stereo not given)"
  GI50: "> 100 µM (inactive)"
- compound: "O=C1OC(CN2CCN(c3ccccc3)CC2)CN1C(=S)Nc1ccccc1 (stereo not given)"
  GI50: "> 100 µM (inactive)"
- compound: "COc1ccc(N2C(=O)c3c(c4[nH]c5ccccc5c4c4ccc(C(C)(C)C)cc34)C2=O)cc1"
  GI50: "> 100 µM (inactive)"
- compound: "NC(Cc1ccc2nc3c4ccccc4c(=O)cc-3oc2c1)C(=O)O (stereo not given)"
  GI50: "72.1 µM (inactive)"
- compound: "O=c1[nH]nc(-c2cccc([N+](=O)[O-])c2)[nH]1"
  GI50: "> 100 µM (inactive)"
- compound: "CC(C)(CN1CCCCC1)C(/C=C/c1ccc(Cl)cc1)=N\\NC(=O)N/N=C(/C=C/c1ccc(Cl)cc1)C(C)(C)CN1CCCCC1"
  GI50: "5.05 µM (inactive)"
- compound: "CCOC(=O)c1nc2ccc(OC)cc2c2c1Cc1ccccc1-2"
  GI50: "> 100 µM (inactive)"
- compound: "COCC1N=C(c2cc(OC)c(OC)c(OC)c2-c2cc3c(cc2[C@@H](C)O)OCO3)O[C@H]1c1ccccc1 (stereo not given in full)"
  GI50: "> 100 µM (inactive)"
- compound: "CCOC(=O)C(O)Cc1cnc2ccccc2n1 (stereo not given)"
  GI50: "> 100 µM (inactive)"

Origin of values: ChEMBL document CHEMBL1201862
